Please respond with reported growth for every item in the list.
- Test system: OVCAR-3 ovarian
- assay.remarks: NCI-60 one-dose screen, 48 h (100 = growth as untreated, 0 = no growth, -100 = all killed)
- condition.notes: 10 µM unless noted
The panel holds about 83,000 compounds, 20% with a hit somewhere; the sample as a whole holds those more often.
Give bare numbers, in %.

Cc1onc(-c2ccccc2Cl)c1C(=O)Cl = 127
CCOC(=O)c1cc(Cl)c(O)c(Cl)c1 = 115
COc1ccc(C2CC(c3ccccc3)=Nc3ccccc3S2)cc1 (centres undefined) = 93.3
Nc1cc2c(cc1Cl)C(=O)c1ccccc1C2=O = 62.3
NNC(=O)CCCCl = 104

Give one value of growth per listed compound.
1. Nc1c(Br)cc(O)c2c1C(=O)c1ccccc1C2=O
2. O=S(=O)(O)c1cccnc1
3. NS(=O)(=O)c1cc(=O)[nH]c(=O)[nH]1
4. O=C(O)c1ccc([N+](=O)[O-])cc1S(=O)(=O)O

1: 96.2; 2: 111; 3: 116; 4: 99.4

Report growth for each item below.
1. C=C1C(=O)C2CCC1C2 (centres undefined)
2. Cc1cc2c3ccc(C)[n+](C)c3ccc2n1C
3. Cc1ccc(C)c(CN(C)C)c1O
4. COc1cc(-c2ccc(NC(=O)CC(C)=O)c(OC)c2)ccc1NC(=O)CC(C)=O
5. CN(C)c1ccc(O)c2c1CC1CC3C(N(C)C)C(=O)C(C(N)=O)=C(O)C3(O)C(=O)C1=C2O (centres undefined)

[95.2, 47, 113, 110, 46.6]
